Below, each entry is listed alongside its reported melting point.

q: Quick check: melting point of O=C(O)c1ccc(-c2nn(Cc3ccccc3)c3ccccc23)cc1 [Example 20] ?
a: 205 to 207 °C

q: Quick check: melting point of O=C(O)c1cccc(-c2nn(Cc3ccccc3)c3ccccc23)c1 [Example 21] ?
a: 190 to 192 °C

q: Quick check: melting point of CCOC(=O)c1cccc(-c2nn(Cc3ccccc3)c3ccccc23)c1 [Example 19] ?
a: 85 to 86 °C

q: Quick check: melting point of OCc1ccc(-c2nn(Cc3ccccc3)c3ccccc23)cc1 [Example 22] ?
a: 110 to 112 °C

Sourced from patent US20020004518A1
